tested on: Streptococcus pneumoniae; experiment: Antibacterial activity against constitutive MLS resistance Streptococcus pneumoniae 58 by broth microdilution method; type: functional
Observed Property: MIC (µg/mL)
One number for each entry, in µg/mL.

Field: example entries. Status: answers known.
CC[C@H]1OC(=O)[C@H](C)[C@@H](O[C@H]2C[C@@](C)(OC)[C@@H](OC(=O)CCNCCCNc3cc4c(cc3F)c(=O)c(C(=O)O)cn4C3CC3)[C@H](C)O2)[C@H](C)[C@@H](O[C@@H]2O[C@H](C)C[C@H](N(C)C)[C@H]2O)[C@](C)(O)C[C@@H](C)C(=O)[C@H](C)[C@@H](O)[C@]1(C)O	0.25
CC[C@H]1OC(=O)[C@H](C)[C@@H](O[C@H]2C[C@@](C)(OC)[C@@H](OC(=O)CCNCCCCNc3ccc4c(=O)c(C(=O)O)cn(CC)c4c3)[C@H](C)O2)[C@H](C)[C@@H](O[C@@H]2O[C@H](C)C[C@H](N(C)C)[C@H]2O)[C@](C)(O)C[C@@H](C)NC(=O)[C@H](C)[C@@H](O)[C@]1(C)O	16
CC[C@H]1OC(=O)[C@H](C)[C@@H](O[C@H]2C[C@@](C)(OC)[C@@H](OC(=O)CCN(C)CCNc3cc4c(=O)c(C(=O)O)cn(C5CC5)c4cc3Cl)[C@H](C)O2)[C@H](C)[C@@H](O[C@@H]2O[C@H](C)C[C@H](N(C)C)[C@H]2O)[C@](C)(O)C[C@@H](C)CN(C)[C@H](C)[C@H]2OC(=O)O[C@@]21C	1

Consider the record given below.
// MIC lookup, compound = CC[C@H]1OC(=O)[C@H](C)[C@@H](O[C@H]2C[C@@](C)(OC)[C@@H](OC(=O)CCNCCCCNc3ccc4c(=O)c(C(=O)O)cn(C)c4c3)[C@H](C)O2)[C@H](C)[C@@H](O[C@@H]2O[C@H](C)C[C@H](N(C)C)[C@H]2O)[C@](C)(O)C[C@@H](C)NC(=O)[C@H](C)[C@@H](O)[C@]1(C)O , result: 32

###

system: Streptococcus pneumoniae; test: Antibacterial activity against constitutive MLS resistance Streptococcus pneumoniae 58 by broth microdilution method; type: functional
Field: MIC. Provide a value for each of the compounds that follow.

CC[C@H]1OC(=O)[C@H](C)[C@@H](O[C@H]2C[C@@](C)(OC)[C@@H](OC(=O)CCNCCCCNc3cc4c(cc3F)c(=O)c(C(=O)O)cn4C3CC3)[C@H](C)O2)[C@H](C)[C@@H](O[C@@H]2O[C@H](C)C[C@H](N(C)C)[C@H]2O)[C@](C)(O)C[C@@H](C)C(=O)[C@H](C)[C@@H](O)[C@]1(C)O	8 µg/mL

Respectfully, I request MIC for each entry included below.
1. CC[C@H]1OC(=O)[C@H](C)[C@@H](O[C@H]2C[C@@](C)(OC)[C@@H](OC(=O)CCNCCNc3ccc4c(c3)c(=O)c(C(=O)O)cn4C3CC3)[C@H](C)O2)[C@H](C)[C@@H](O[C@@H]2O[C@H](C)C[C@H](N(C)C)[C@H]2O)[C@](C)(O)C[C@@H](C)CN(C)[C@H](C)[C@H]2OC(=O)O[C@@]21C
2. CC[C@H]1OC(=O)[C@H](C)[C@@H](O[C@H]2C[C@@](C)(OC)[C@@H](OC(=O)CCNCCNc3cc4c(cc3F)c(=O)c(C(=O)O)cn4C3CC3)[C@H](C)O2)[C@H](C)[C@@H](O[C@@H]2O[C@H](C)C[C@H](N(C)C)[C@H]2O)[C@](C)(O)C[C@@H](C)C(=O)[C@H](C)[C@@H](O)[C@]1(C)O

Output line:
1. 0.25 µg/mL
2. ≤ 0.125 µg/mL

###

Kindly supply the reported MIC values for the records listed here.
tested on: Streptococcus pneumoniae; assay: Antibacterial activity against constitutive MLS resistance Streptococcus pneumoniae 58 by broth microdilution method; type: functional
Give bare numbers, in µg/mL.

Example cases with answers are listed next.
CC[C@H]1OC(=O)[C@H](C)[C@@H](O[C@H]2C[C@@](C)(OC)[C@@H](OC(=O)CCNCCCCNc3ccc4c(=O)c(C(=O)O)cn(C)c4c3)[C@H](C)O2)[C@H](C)[C@@H](O[C@@H]2O[C@H](C)C[C@H](N(C)C)[C@H]2O)[C@](C)(O)C[C@@H](C)CN(C)[C@H](C)[C@@H](O)[C@]1(C)O	32
CC[C@H]1OC(=O)[C@H](C)C(=O)[C@H](C)[C@@H](O[C@@H]2O[C@H](C)C[C@H](N(C)C)[C@H]2O)[C@](C)(OC)C[C@@H](C)C(=O)[C@H](C)[C@H]2N(CCCCn3cnc(-c4cccnc4)c3)C(=O)O[C@]12C [TELITHROMYCIN]	0.25
CC[C@H]1OC(=O)[C@H](C)[C@@H](O[C@H]2C[C@@](C)(OC)[C@@H](OC(=O)CCN(C)CCNc3ccc4c(c3)c(=O)c(C(=O)O)cn4C3CC3)[C@H](C)O2)[C@H](C)[C@@H](O[C@@H]2O[C@H](C)C[C@H](N(C)C)[C@H]2O)[C@](C)(O)C[C@@H](C)CN(C)[C@H](C)[C@H]2OC(=O)O[C@@]21C	1

What the record says about CC[C@H]1OC(=O)[C@H](C)[C@@H](O[C@H]2C[C@@](C)(OC)[C@@H](OC(=O)CCN(C)CCNc3cc4c(=O)c(C(=O)OC)cn(C5CC5)c4cc3Cl)[C@H](C)O2)[C@H](C)[C@@H](O[C@@H]2O[C@H](C)C[C@H](N(C)C)[C@H]2O)[C@](C)(O)C[C@@H](C)CN(C)[C@H](C)[C@@H](O)[C@]1(C)O : MIC is 0.5

###

tested on: Streptococcus pneumoniae; assay: Antibacterial activity against constitutive MLS resistance Streptococcus pneumoniae 58 by broth microdilution method; format: functional
Observed Property: MIC

Solved entries (count: 2):
CC[C@H]1OC(=O)[C@H](C)[C@@H](O[C@H]2C[C@@](C)(OC)[C@@H](O)[C@H](C)O2)[C@H](C)[C@@H](O[C@@H]2O[C@H](C)C[C@H](N(C)C)[C@H]2O)[C@](C)(OC)C[C@@H](C)C(=O)[C@H](C)[C@@H](O)[C@]1(C)O	> 16 µg/mL
CC[C@H]1OC(=O)[C@H](C)[C@@H](O[C@H]2C[C@@](C)(OC)[C@@H](OC(=O)CCNCCNc3ccc4c(=O)c(C(=O)O)cn(C)c4c3)[C@H](C)O2)[C@H](C)[C@@H](O[C@@H]2O[C@H](C)C[C@H](N(C)C)[C@H]2O)[C@](C)(O)C[C@@H](C)C(=O)[C@H](C)[C@@H](O)[C@]1(C)O	≤ 0.125 µg/mL

Now consider a different molecule.
The molecule identified as CC[C@H]1OC(=O)[C@H](C)[C@@H](O[C@H]2C[C@@](C)(OC)[C@@H](OC(=O)CCNCCCCNc3ccc4c(=O)c(C(=O)O)cn(CC)c4c3)[C@H](C)O2)[C@H](C)[C@@H](O[C@@H]2O[C@H](C)C[C@H](N(C)C)[C@H]2O)[C@](C)(O)C[C@@H](C)CN(C)[C@H](C)[C@@H](O)[C@]1(C)O registered its MIC at 2 µg/mL

###

I'd appreciate it if you could supply MIC values for the items below.
system: Streptococcus pneumoniae; assay: Antibacterial activity against constitutive MLS resistance Streptococcus pneumoniae 58 by broth microdilution method; format: functional

CC[C@H]1OC(=O)[C@H](C)[C@@H](O[C@H]2C[C@@](C)(OC)[C@@H](OC(=O)CCNCCNc3cc4c(=O)c(C(=O)O)cn(C5CC5)c4cc3Cl)[C@H](C)O2)[C@H](C)[C@@H](O[C@@H]2O[C@H](C)C[C@H](N(C)C)[C@H]2O)[C@](C)(O)C[C@@H](C)CN(C)[C@H](C)[C@H]2OC(=O)O[C@@]21C	≤ 0.125 µg/mL

Give one value of MIC per listed molecule.
1. CC[C@H]1OC(=O)[C@H](C)[C@@H](O[C@H]2C[C@@](C)(OC)[C@@H](OC(=O)CCNCCNc3ccc4c(=O)c(C(=O)O)cn(C)c4c3)[C@H](C)O2)[C@H](C)[C@@H](O[C@@H]2O[C@H](C)C[C@H](N(C)C)[C@H]2O)[C@](C)(O)C[C@@H](C)CN(C)[C@H](C)[C@@H](O)[C@]1(C)O
2. CC[C@H]1OC(=O)[C@H](C)[C@@H](O[C@H]2C[C@@](C)(OC)[C@@H](O)[C@H](C)O2)[C@H](C)[C@@H](O[C@@H]2O[C@H](C)C[C@H](N(C)C)[C@H]2O)[C@](C)(O)C[C@@H](C)CN(C)[C@H](C)[C@@H](O)[C@]1(C)O [AZITHROMYCIN]

Output line:
1. ≤ 0.125 µg/mL
2. > 64 µg/mL
